- system.under.test: Protein deacetylase HDAC6 (Homo sapiens) (UniProt Q9UBN7)
- Sequence (whole entry): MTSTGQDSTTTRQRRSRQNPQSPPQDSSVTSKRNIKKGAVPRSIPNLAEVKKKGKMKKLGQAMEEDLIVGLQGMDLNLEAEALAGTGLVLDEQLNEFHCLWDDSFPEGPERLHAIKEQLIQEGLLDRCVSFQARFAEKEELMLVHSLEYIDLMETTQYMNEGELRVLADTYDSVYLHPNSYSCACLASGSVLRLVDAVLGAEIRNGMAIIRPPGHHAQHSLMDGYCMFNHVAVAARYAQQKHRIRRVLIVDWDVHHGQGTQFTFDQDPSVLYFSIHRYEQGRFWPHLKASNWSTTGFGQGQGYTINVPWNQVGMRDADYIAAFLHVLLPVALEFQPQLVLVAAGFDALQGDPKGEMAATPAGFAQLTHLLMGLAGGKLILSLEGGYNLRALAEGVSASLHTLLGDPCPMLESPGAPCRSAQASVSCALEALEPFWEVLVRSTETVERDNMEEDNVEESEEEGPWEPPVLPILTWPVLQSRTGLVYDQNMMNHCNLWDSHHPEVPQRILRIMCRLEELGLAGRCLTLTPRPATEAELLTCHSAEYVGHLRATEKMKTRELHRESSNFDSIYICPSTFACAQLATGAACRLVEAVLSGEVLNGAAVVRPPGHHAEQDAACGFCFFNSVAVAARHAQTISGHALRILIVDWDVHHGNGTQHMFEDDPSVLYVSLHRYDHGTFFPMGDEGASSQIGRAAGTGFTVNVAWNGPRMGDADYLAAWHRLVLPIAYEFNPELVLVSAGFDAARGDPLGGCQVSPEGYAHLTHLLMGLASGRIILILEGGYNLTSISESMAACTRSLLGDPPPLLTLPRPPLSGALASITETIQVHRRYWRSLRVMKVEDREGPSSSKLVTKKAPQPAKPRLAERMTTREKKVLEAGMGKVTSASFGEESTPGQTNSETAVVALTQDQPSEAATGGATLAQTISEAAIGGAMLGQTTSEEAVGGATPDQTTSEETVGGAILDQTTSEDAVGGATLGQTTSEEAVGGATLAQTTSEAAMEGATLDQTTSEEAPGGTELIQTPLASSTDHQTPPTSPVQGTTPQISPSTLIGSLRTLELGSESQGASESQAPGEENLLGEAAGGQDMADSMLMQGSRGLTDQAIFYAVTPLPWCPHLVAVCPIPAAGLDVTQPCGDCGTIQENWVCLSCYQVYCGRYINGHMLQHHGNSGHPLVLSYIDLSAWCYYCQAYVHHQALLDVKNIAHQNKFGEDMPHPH
- reported.conditions: at 10 µM
Structures can show the parent of a compound that is named as a salt.
Hi there, I'd appreciate the recorded inhibition for every entry that follows.
Please reply with the bare figure in % and do not write the unit itself.

Bench note: what inhibition did Cc1cc(C)c(/C=C2\C(=O)Nc3ccccc32)[nH]1 show? 36.4

Bench note: what inhibition did COc1ccc(-c2coc3cc(O)cc(O)c3c2=O)cc1 show? 101

Bench note: what inhibition did Cc1cc(O)c2c(c1)C(=O)c1cccc(O)c1C2=O show? 65.1

Bench note: what inhibition did O=C(/C=C/c1ccc(O)c(O)c1)OCCc1ccccc1 show? 47.2

Bench note: what inhibition did O=C(Nc1ccc([N+](=O)[O-])cc1Cl)c1cc(Cl)ccc1O show? 42.3

Bench note: what inhibition did COc1cccc(NC(=O)/C=C/c2ccc(Cl)cc2)c1 show? 109

Bench note: what inhibition did COc1ccc(-c2nc3cc(C4=NNC(=O)CC4C)ccc3[nH]2)cc1 (centres undefined) show? 97.8

Bench note: what inhibition did CC(C)COC(=O)c1ccc(N)cc1 show? 82.1

Bench note: what inhibition did Nc1nc(N)c2nc(-c3cccc(O)c3)cnc2n1 show? 85.3

Bench note: what inhibition did O=c1cc(-c2ccc(O)c(O)c2)oc2cc(O)cc(O)c12 [LUTEOLIN] show? 99.9

Bench note: what inhibition did Cc1coc2c1C(=O)C(=O)c1c-2ccc2c(C)cccc12 [TANSHINONE I] show? 98.4

Bench note: what inhibition did O=C(Nc1ccc2[nH]ccc2c1)c1ccccc1 show? 86.3

Bench note: what inhibition did O=C(Nc1cccc(Cl)c1)c1ccccn1 show? 102

Bench note: what inhibition did CN(C)Cc1c(C(=O)NCCOc2ccc(C(=O)NO)cc2)oc2ccccc12 show? 102

Bench note: what inhibition did O=C(CCCCCCC(=O)NO)NO [SUBEROHYDROXAMIC ACID] show? 97.8

Bench note: what inhibition did CC(C)(C)c1[nH]cnc1/C=c1\[nH]c(=O)/c(=C/c2ccccc2)[nH]c1=O show? 80.7

Bench note: what inhibition did Cc1ccc(C(=O)Cn2c3c(sc2=N)CCCC3)cc1 show? 112

Bench note: what inhibition did CC(C)OC(=O)Nc1cccc(Cl)c1 show? 73

Bench note: what inhibition did CN1CCCN=C1/C=C/c1cccs1 show? 42

Bench note: what inhibition did COc1ccc2nc(NC(=O)Nc3ccccc3)sc2c1 [FRENTIZOLE] show? 103

Bench note: what inhibition did Nc1ccc(C(=O)Oc2ccccc2)c(O)c1 [PHENYL AMINOSALICYLATE] show? 103

Bench note: what inhibition did c1cc(Nc2cc(C3CC3)n[nH]2)nc(Nc2ccc3[nH]cnc3c2)n1 show? 66.6

Bench note: what inhibition did COc1ccc(Nc2ccn(-c3ccccc3)n2)cc1 show? 111

Bench note: what inhibition did Nc1ncnc(Nc2ccc(Cl)cc2)n1 show? 59.8

Bench note: what inhibition did O=C(Nc1ccc(Br)cc1)c1cc(Br)cc(Br)c1O show? 30.8

Bench note: what inhibition did Cc1cc(/C=C2\SC(=O)N(c3ccccc3)C2=O)c(C)n1-c1cccnc1 show? 106

Bench note: what inhibition did O=C(/C=C/c1ccc2ccccc2n1)c1ccncc1 show? 78.5

Bench note: what inhibition did O=C(NO)c1cnc(N2CCN(S(=O)(=O)c3ccc4ccccc4c3)CC2)nc1 [R-306465] show? 103

Bench note: what inhibition did Cn1ccc2cc(NC(=O)Nc3cccnc3)ccc21 show? 50.6

Bench note: what inhibition did N[C@@H]1CCCN(c2c(/C=C3\SC(=O)NC3=O)cccc2-c2ccccc2)C1 show? 14.4

Bench note: what inhibition did O=c1c(O)c(-c2ccc(O)c(O)c2)oc2cc(O)ccc12 [FISETIN] show? 98.4

Bench note: what inhibition did O=C(/C=C/c1ccc2c(c1)OCO2)N1CCCCC1 show? 89.8

Bench note: what inhibition did O=C1Cc2c([nH]c3ccc(Br)cc23)-c2ncccc2N1 show? 92.8

Bench note: what inhibition did CN(C)CCCSc1ccccc1NC(=O)/C=C/c1ccccc1 [CINANSERIN HYDROCHLORIDE] show? 106

Bench note: what inhibition did O=C(Oc1ccccc1)c1ccccc1O show? 67.9

Bench note: what inhibition did CC1(C)CNc2cc(NC(=O)c3cccnc3NCc3ccncc3)ccc21 show? 78.2

Bench note: what inhibition did COc1ccc(-c2cc(=O)c3c(O)cc(O)cc3o2)cc1O show? 102

Bench note: what inhibition did O=C(Nc1cc2cc[nH]c2cn1)c1ccccc1 show? 102

Bench note: what inhibition did O=C(/C=C/c1cccc(S(=O)(=O)Nc2ccccc2)c1)NO [BELINOSTAT] show? 100

Bench note: what inhibition did CN(C)CCOC1=Cc2ccccc2Sc2ccc(Cl)cc21 [ZOTEPINE] show? 105

Bench note: what inhibition did O=c1c(O)c(-c2ccc(O)cc2O)oc2cc(O)cc(O)c12 [MORIN] show? 86.6

Bench note: what inhibition did C/C(=N\NC(=N)N)c1cc(NC(=O)CCCCCCCCC(=O)Nc2cc(/C(C)=N/NC(=N)N)cc(/C(C)=N/NC(=N)N)c2)cc(/C(C)=N/NC(=N)N)c1 show? 57.5

Bench note: what inhibition did CC(=O)c1ccc2c(c1)N(CCCN1CCC(CCO)CC1)c1ccccc1S2 [PIPERACETAZINE] show? 77.7

Bench note: what inhibition did CCCCCCOc1ccccc1C(N)=O [EXALAMIDE] show? 95.1
